Target: Bile acid receptor (Homo sapiens)
Sequence (Q96RI1 whole entry): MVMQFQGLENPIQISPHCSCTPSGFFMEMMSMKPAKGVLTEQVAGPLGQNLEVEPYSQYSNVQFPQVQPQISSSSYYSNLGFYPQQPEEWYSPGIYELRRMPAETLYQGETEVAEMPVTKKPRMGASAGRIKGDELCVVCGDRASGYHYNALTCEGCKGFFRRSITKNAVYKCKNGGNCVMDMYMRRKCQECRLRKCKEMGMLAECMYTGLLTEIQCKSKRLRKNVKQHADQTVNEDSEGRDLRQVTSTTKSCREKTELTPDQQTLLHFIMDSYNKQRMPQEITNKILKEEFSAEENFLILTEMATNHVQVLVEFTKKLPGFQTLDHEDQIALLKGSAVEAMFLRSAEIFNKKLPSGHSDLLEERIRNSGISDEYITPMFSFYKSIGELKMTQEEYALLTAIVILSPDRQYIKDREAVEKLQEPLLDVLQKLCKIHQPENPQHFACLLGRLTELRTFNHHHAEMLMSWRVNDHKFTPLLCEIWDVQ
Assay: Agonist activity at FXR (unknown origin)
Property: pEC50
One number for each entry, as −log10 of the molar value.

[ask] Please report the measured pEC50 for "CC(C)(C)c1ccc(-n2cnc3c(NC(=O)Cc4ccc(C(=O)O)cc4)cccc32)cc1"
[reply] 6.11

All values here come from ChEMBL document CHEMBL6103638.
